target-or-system: human delta N-HTRA1 (amino acids 156-480 of SEQ ID NO:1) (human, UniProt Q92743 156-480)
Sequence (Q92743 156-480, stated change not applied): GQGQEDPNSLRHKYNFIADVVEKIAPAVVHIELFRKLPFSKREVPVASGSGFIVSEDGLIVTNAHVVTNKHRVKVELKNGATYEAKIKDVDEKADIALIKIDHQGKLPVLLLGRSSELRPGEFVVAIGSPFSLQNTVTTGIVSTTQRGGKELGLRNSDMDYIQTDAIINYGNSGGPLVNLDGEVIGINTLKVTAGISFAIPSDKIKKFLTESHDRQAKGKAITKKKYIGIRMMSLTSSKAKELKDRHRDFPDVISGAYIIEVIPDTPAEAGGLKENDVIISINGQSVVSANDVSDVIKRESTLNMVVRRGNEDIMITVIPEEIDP
assay-text: SPR (Biacore); antibody captured by anti-Fc, human delta N-HTRA1 injected; temperature of this table not stated
Listing of entries alongside the reported kon.
Form entry: value (M⁻¹ s⁻¹) — number only.

Here is how some binders turned out for kon.
>>> result_value("antibody 55B12 (antibody, V domains shown, Mouse hybridoma monoclonal antibody) VH: QVQLQQPGAELVKPGASVKLSCKASGYTFTNYWMHWVKQRPGQGLEWIGNIDPSDSETHYNQKFKDKATLAVDKSSSTAYMQLSSLTSEDSAVYYCAREDSSGYGAYWGQGTLVTVSA VL: QIVLTQSPAIMSASPGEKVTMTCSASSSVNYMHWYQQKSGTSPKRWIYDTSKLASGVPDRFSGSGSGTSYSLTISSMEAEDAATYYCQQWSSHPLTFGAGTKLELK")
"3.8e+07"
>>> result_value("antibody 9F8 (antibody, V domains shown, Mouse hybridoma monoclonal antibody) VH: QVQLQQPGAELVRPGSSVKLSCKASGYAFTTYWMHWVKQRPIQGLEWIGNIDPSDSETHYNQKFRDKATLTVDKSSSTAYMQLSSLTSEDSAVYYCARDYGAFDVWGTGTTVTVSS VL: QAVVTQESALTTSSGETVTLTCRSSTGAVTTRNFASWVQEKPDHLFTGLIGGTNNRAPGVPARFSGSLIGDKAALTITGAQTEDEAIYFCALWYSNLWVFGGGTKLTVL")
"3e+07"
>>> result_value("antibody 65G8 (antibody, V domains shown, Mouse hybridoma monoclonal antibody) VH: QVQLQQSGPQLVRPGASVKISCKASGYSFTSYWMHWVKQRPGQGLEWIGMIDPSDSETRLNQKFKDKATLTIDKSSSTAYMQLSSPTSEDSAVYYCTRDYFDYWGQGTTLTVSS VL: QIVLTQSPAIMSTSPGEKVTMTCSASSSVSYMYWYQQKPGSSPRLLIYDTSNLASGVPVRFSGSGSGTSYSLTISRMEAEDAATYYCQQWSSYPYTFGGGTKLEIK")
"6.9e+06"

Switching to the query record.
kon for antibody 24F7 (antibody, V domains shown, Mouse hybridoma monoclonal antibody; also called parental 24F7 antibody) VH: QVQLQQSGAELVRPGASVKLSCKASGYTFTDYEMHWVKQTPVHGLEWIGAIDPETGGTAYNQKFKGKATLTADKSSSTAYMELRSLTSEDSAVYYCTREGYSYDGGGYYFDYWGQGTTLTVSS VL: QIVLTQSPAIMSASPGEKVTMTCSVSSSVSYMYWYQQKPGSSPRLLIYDTSNLASGVPVRFSGSGSGTSYSLTISRMEAEDAATYYCQQWSSYPTFGGGTKLEIK is 7.4e+06
